biological target: human ether-à-go-go-related gene (hERG) potassium channel (human); assay: primary screen, population patch clamp on CHO cells stably expressing hERG; higher = less effect of the substance;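 note: peak tail current of the secondary pulse compared with the same well before compound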
Sequence (Q12809 whole entry, looked up): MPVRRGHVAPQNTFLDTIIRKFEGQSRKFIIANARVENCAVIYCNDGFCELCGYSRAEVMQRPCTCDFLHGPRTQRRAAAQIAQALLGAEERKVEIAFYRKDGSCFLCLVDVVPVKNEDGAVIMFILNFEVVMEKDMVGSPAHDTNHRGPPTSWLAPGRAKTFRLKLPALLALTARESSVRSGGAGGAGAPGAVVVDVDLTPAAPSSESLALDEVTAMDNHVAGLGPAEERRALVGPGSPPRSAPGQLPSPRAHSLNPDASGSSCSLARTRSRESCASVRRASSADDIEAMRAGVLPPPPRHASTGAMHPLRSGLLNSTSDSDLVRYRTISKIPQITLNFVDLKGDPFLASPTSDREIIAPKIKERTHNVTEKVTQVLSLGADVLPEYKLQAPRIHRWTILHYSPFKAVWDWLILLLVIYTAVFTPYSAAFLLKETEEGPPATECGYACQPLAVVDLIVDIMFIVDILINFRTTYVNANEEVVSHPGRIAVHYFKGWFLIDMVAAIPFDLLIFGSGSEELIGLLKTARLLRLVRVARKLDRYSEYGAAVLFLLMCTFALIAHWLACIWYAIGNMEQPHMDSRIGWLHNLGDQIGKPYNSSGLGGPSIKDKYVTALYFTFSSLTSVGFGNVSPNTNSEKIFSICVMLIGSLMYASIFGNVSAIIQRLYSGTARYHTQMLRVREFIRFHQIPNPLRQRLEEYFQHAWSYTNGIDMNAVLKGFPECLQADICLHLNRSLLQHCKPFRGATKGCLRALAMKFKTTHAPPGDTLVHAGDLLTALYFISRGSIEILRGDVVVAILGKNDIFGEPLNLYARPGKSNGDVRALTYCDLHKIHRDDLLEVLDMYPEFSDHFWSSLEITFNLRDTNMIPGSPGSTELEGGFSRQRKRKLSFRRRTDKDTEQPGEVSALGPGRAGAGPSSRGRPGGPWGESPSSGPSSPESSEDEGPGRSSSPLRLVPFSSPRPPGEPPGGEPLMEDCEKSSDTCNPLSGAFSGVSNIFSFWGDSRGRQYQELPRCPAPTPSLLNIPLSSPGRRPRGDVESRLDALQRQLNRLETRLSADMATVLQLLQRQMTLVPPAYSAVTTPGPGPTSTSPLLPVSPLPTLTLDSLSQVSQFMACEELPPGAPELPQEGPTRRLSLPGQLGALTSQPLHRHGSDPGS
Screen size: about 310,000 compounds; about 14,000 (4.5%) showed an effect of 50% or more. The effect is printed as a negative number. What follows is part of a selection rich in strong results, with near analogues and random picks from the rest.
Decide using hERG current change (%, negative = inhibition) at 10uM: a value greater than or equal to -20% is MET, a smaller one is NOT MET.

                                   compound  classification
0  COC(=O)C1=C(c2ccc(OC(F)(F)F)cc2)C[C@@H]2CC[C@H]1N2C(=O)NCCOc1ccc(OC)cc1         NOT MET
1  COCC(C)N1CCC(Oc2cccc(C(=O)NCCc3ccccc3)c2)CC1 (stereo not shown)         NOT MET
2  CC(C)C(c1nnnn1Cc1cccs1)N1CCN(c2ccccc2)CC1 (stereo not shown)             MET

*Q* I'd appreciate it if you could say whether COc1cc(OC)cc(C(=O)NCCOc2ccccc2)c1 has hERG current change (%, negative = inhibition) at 10uM at least equal to -20%.
*A* MET

*Q* I'd appreciate it if you could say whether COc1cccc(OCCCCN2CCCCC2)c1 has hERG current change (%, negative = inhibition) at 10uM at least equal to -20%.
*A* MET

*Q* I'd appreciate it if you could say whether COCCn1nnnc1C(c1ccc(OC)cc1OC)N1CCN(c2ccccc2F)CC1.Cl (stereo not shown) has hERG current change (%, negative = inhibition) at 10uM at least equal to -20%.
*A* MET

*Q* I'd appreciate it if you could say whether CC(C)(C)CN1CCN(Cc2cccnc2)CC1CCO (stereo not shown) has hERG current change (%, negative = inhibition) at 10uM at least equal to -20%.
*A* MET

*Q* I'd appreciate it if you could say whether COc1ccc(C(=O)Nc2c3c(nn2-c2cccc(Cl)c2)CS(=O)C3)cc1 (stereo not shown) has hERG current change (%, negative = inhibition) at 10uM at least equal to -20%.
*A* NOT MET

*Q* I'd appreciate it if you could say whether CCC(c1nnnn1C(C)(C)C)N1CCN(Cc2ccccc2OC)CC1.Cl (stereo not shown) has hERG current change (%, negative = inhibition) at 10uM at least equal to -20%.
*A* MET

*Q* I'd appreciate it if you could say whether CCCN1CCC(NC(=O)c2cccc(Oc3ccccc3)c2)CC1 has hERG current change (%, negative = inhibition) at 10uM at least equal to -20%.
*A* NOT MET
